# MEASUREMENT TARGET: Cav2.3 (Homo sapiens, UniProt Q15878)
# Sequence (Q15878 1-747 limits assumed): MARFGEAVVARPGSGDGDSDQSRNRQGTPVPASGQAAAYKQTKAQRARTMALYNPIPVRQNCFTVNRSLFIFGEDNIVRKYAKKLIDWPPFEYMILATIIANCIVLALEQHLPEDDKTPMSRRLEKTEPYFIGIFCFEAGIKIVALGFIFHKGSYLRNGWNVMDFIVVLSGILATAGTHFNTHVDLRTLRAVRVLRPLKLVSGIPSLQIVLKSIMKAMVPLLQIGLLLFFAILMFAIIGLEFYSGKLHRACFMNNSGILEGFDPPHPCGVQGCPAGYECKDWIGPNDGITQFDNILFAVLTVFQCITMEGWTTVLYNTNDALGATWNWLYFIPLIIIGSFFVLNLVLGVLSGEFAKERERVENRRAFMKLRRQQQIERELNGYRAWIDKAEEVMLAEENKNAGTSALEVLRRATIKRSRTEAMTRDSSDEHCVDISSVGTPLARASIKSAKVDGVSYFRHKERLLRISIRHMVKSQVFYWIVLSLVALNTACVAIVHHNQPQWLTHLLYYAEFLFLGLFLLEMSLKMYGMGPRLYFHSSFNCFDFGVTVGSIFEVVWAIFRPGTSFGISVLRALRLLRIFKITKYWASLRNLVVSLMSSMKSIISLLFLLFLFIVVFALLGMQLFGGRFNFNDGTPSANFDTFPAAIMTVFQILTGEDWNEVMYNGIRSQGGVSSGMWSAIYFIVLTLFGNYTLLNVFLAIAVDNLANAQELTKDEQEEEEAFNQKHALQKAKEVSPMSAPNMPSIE
# Sequence (Q15878 1126-2313 limits assumed): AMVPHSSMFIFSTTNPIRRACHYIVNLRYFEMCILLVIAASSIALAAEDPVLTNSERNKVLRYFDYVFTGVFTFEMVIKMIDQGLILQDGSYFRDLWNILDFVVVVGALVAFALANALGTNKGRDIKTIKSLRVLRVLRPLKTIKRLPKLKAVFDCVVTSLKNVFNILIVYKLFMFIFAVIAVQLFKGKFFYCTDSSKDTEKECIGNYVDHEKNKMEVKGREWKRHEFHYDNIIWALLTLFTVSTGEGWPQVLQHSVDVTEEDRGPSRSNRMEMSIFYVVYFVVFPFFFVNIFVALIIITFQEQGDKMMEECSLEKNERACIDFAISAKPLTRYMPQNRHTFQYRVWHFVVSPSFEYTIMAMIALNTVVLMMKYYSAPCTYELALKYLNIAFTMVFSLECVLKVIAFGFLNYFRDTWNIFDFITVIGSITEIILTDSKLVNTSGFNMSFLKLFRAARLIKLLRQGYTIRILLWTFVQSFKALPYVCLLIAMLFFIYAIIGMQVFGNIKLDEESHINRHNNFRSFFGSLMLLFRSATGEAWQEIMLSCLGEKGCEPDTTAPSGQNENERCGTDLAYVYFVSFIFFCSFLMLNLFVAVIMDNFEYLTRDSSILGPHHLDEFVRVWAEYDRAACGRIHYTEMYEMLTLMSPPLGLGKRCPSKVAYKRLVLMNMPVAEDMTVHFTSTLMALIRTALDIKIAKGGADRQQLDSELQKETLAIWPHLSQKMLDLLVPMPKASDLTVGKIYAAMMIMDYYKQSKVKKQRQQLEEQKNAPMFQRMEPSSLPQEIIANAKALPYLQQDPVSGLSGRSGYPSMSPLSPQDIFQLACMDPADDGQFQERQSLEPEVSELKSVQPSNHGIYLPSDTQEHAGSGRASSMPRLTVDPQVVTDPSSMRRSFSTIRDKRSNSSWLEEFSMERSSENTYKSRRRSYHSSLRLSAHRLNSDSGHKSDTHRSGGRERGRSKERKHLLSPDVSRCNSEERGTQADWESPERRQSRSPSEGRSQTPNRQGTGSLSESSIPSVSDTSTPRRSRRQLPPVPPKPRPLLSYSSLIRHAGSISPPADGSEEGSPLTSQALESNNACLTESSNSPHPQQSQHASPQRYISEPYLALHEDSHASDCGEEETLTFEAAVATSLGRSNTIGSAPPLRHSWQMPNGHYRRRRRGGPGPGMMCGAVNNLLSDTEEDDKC
# ASSAY OVERVIEW: Human Cav2.3 channel calcium-influx assay
# Format: cell-based
# EXPERIMENTAL CONDITIONS: HEK-293 T-Rex/Kir2.1/Cav2.3e-β4-α2δ1 cells, Fluo8 fluorescence, without pluronic acid; read-out: Cav2.3 (pIC50) (converted)
MEASUREMENT NAME: IC50 (µM)

Some compounds with recorded IC50:
- COMPOUND: "CC1CC2(CCC2)CN1S(=O)(=O)c1ccc2oncc2c1 (stereo not drawn)"
  U: "µM"
  IC50: 39.8
- COMPOUND: "CC1CC2(CCC2)CN1S(=O)(=O)c1ccc2c(c1)CN(C(=O)c1ccccc1)CC2 (single isomer, unassigned) [Example 27]"
  U: "µM"
  IC50: 0.851
- COMPOUND: "CCC1CC2(CCC2)CN1S(=O)(=O)c1cccs1 (stereo not drawn) [Example 69]"
  U: "µM"
  IC50: 2.51
- COMPOUND: "CC1CC2(CCC2)CN1S(=O)(=O)c1ccncc1 (stereo not drawn) [Example 11]"
  U: "µM"
  IC50: 3.24
- COMPOUND: "CC1CC2(CCC2)CN1S(=O)(=O)c1scnc1CO (stereo not drawn)"
  U: "µM"
  IC50: 11.2
- COMPOUND: "CC1CC2(CCC2)CN1S(=O)(=O)c1ccc2c(c1)CN(C(=O)c1ccccc1)CC2 (stereo not drawn) [Example 26]"
  U: "µM"
  IC50: 1.1

A = CC1CCC2(CCC2)CN1S(=O)(=O)c1cccs1 (stereo not drawn)
B = O=S(=O)(c1cccs1)N1CC2(CCC2)CC1CO (stereo not drawn)
C = CCC1CC2(CCC2)CN1S(=O)(=O)c1ccc2c(c1)CN(C(=O)C(C)C)CC2 (stereo not drawn)
D = CC1CC2(CCC2)CN1S(=O)(=O)c1cccs1 (stereo not drawn) [Example 102]
E = CC(C)C(=O)N1CCc2ccc(S(=O)(=O)N3CC4(CCCC4)CC3C)cc2C1 (stereo not drawn)
stdin: Sort by IC50, descending. Please list each label once, in the requested order.
stdout: B, A, D, C, E
